# Tested on: WI-38
# assayOverview: Cytotoxicity against human WI38 cells after 72 hrs by Alamar blue assay
# Assay type: cell-based
# recordedConditions: WI-38, 72 h
recordedEndpoint: IC50 (µM)
Give just the numeric value; µM need not be written.

Bench note: what IC50 did C=C[C@]1(C)C=C2C(=O)[C@@]3(O)OC(=O)[C@@]4(CCCC(C)(C)[C@H]34)[C@@]2(O)CC1 [SPHAEROPSIDIN A] show? 3.7

Bench note: what IC50 did COc1cccc2c1C(=O)c1c(O)c3c(c(O)c1C2=O)C[C@@](O)(C(=O)CO)C[C@@H]3O[C@H]1C[C@H](N)[C@H](O)[C@H](C)O1 [DOXORUBICIN] show? 0.8

###

# assayOverview: Cytotoxicity against human PC3M cells after 72 hrs by Alamar blue assay
# Assay type: functional, cell-based
# recordedConditions: PC-3M
Could you please report measured pIC50 for the items listed next?
Scale for pIC50: -log10 of concentration given in mol/L; no unit attached.

Bench note: what pIC50 did "C=C[C@]1(C)C=C2C(=O)[C@@]3(OC(C)=O)OC(=O)[C@@]4(CCCC(C)(C)[C@H]34)[C@@]2(O)CC1" show? 5.57

Bench note: what pIC50 did C=C[C@]1(C)C=C2C(=O)[C@@]3(O)OC(=O)[C@@]4(CCCC(C)(C)[C@H]34)[C@@]2(O)CC1 [SPHAEROPSIDIN A] show? 5.62

###

# Tested on: MCF7
# assayOverview: Cytotoxicity against human MCF7 cells after 72 hrs by Alamar blue assay
# Assay type: functional, cell-based
# recordedConditions: MCF7, 72 h
recordedEndpoint: pIC50
Scale for pIC50: -log10 of concentration given in mol/L; no unit attached.

Bench note: what pIC50 did "C=C[C@]1(C)C=C2C(=O)[C@@]3(O)OC(=O)[C@@]4(CCCC(C)(C)[C@H]34)[C@@]2(O)CC1" show? 5.52

Bench note: what pIC50 did "C=C[C@]1(C)C=C2C(=O)[C@@]3(OC(C)=O)OC(=O)[C@@]4(CCCC(C)(C)[C@H]34)[C@@]2(O)CC1" show? 5.70

Bench note: what pIC50 did "COc1cccc2c1C(=O)c1c(O)c3c(c(O)c1C2=O)C[C@@](O)(C(=O)CO)C[C@@H]3O[C@H]1C[C@H](N)[C@H](O)[C@H](C)O1" show? 6.40
